biological target: ABCA4 P1380L (Homo sapiens, UniProt P78363, P1380L); construct: expressed in transfected cells; experiment: A4 correction dose-response assay: ABCA4 P1380L HiBit protein expression; assay type: cell-based; conditions: HEK-293 cells stably expressing HiBit-tagged ABCA4 P1380L; 24 h treatment; top concentration 30 μM; read-out: ABCA4 P1380L EC50, Emax
Sequence (P78363 whole entry P1380L): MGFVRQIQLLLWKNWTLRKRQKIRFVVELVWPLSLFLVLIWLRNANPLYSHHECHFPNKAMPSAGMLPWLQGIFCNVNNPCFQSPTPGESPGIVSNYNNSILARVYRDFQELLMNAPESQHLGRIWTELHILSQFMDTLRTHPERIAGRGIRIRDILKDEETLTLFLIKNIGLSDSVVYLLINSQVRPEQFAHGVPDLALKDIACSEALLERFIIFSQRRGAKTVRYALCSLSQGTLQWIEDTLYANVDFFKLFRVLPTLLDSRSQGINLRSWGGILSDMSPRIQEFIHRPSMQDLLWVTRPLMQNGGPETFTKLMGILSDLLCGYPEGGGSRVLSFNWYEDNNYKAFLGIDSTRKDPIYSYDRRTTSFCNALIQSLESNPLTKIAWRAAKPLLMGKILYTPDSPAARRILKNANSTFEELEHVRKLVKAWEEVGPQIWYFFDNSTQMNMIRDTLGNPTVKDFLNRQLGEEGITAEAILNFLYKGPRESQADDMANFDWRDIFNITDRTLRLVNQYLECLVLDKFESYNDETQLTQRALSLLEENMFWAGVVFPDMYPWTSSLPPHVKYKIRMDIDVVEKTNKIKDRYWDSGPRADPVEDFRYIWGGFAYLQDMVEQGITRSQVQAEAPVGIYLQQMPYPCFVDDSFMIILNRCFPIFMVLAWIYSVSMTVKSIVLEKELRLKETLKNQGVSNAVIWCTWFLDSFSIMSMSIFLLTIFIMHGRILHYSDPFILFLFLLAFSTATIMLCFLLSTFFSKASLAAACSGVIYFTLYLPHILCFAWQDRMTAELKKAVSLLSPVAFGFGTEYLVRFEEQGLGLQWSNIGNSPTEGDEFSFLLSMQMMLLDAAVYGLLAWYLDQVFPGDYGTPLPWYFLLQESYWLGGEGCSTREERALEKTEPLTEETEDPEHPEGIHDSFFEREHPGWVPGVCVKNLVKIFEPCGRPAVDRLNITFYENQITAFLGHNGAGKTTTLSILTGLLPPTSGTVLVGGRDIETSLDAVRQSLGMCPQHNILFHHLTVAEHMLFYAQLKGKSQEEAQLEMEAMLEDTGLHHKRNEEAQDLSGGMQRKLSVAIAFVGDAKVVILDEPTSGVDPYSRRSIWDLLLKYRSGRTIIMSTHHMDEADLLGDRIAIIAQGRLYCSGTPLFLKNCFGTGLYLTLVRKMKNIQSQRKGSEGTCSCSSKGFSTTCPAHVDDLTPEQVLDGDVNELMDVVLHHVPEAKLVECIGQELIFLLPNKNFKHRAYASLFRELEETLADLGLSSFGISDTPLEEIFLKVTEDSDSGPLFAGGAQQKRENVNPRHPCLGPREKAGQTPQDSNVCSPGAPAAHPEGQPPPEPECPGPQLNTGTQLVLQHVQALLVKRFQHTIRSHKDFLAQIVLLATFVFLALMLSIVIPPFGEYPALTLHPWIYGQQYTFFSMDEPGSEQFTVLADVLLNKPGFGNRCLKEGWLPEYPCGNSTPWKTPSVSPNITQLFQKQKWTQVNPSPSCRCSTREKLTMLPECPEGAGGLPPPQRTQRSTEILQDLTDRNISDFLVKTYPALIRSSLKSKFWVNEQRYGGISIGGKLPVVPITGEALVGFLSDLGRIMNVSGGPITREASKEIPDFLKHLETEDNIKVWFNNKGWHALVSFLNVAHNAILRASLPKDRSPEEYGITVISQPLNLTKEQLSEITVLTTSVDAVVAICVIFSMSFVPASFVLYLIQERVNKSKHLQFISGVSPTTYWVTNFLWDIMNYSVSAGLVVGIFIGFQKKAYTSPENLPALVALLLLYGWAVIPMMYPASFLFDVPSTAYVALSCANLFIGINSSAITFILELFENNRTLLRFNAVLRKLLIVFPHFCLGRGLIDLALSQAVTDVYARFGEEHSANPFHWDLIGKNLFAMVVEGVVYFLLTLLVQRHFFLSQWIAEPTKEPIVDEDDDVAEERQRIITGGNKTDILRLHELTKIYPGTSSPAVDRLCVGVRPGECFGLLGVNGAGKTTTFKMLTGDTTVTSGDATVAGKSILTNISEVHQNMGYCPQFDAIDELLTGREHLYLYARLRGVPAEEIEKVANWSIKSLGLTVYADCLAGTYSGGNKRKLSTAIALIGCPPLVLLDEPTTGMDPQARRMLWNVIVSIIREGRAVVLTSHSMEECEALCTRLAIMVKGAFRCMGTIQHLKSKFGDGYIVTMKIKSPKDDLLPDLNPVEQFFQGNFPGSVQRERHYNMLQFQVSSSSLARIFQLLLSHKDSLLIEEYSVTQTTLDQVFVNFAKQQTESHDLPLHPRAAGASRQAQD
pEC50: −log10 of the molar value.
measurement_kind: pEC50

Worked examples follow.
{"columns": ["compound", "target_of_assay", "pEC50"],
 "data": [
  ["Cc1cc(C2CC2)nc(C)c1Oc1nc(-c2ccnc(C#N)c2)ccc1NS(C)(=O)=O [Compound I-213]", "ABCA4 P1380L (Homo sapiens, UniProt P78363, P1380L)", "> 6.00"],
  ["Cc1nn(C)c(C)c1Oc1nc(-c2cncc(C#N)c2)ccc1NS(C)(=O)=O [Compound I-115]", "ABCA4 P1380L (Homo sapiens, UniProt P78363, P1380L)", "> 4.60"],
  ["Cc1cc(C)c(Oc2nc(-c3cncc(Cl)c3)ccc2N2CCCS2(=O)=O)c(C)c1 [Compound I-67]", "ABCA4 P1380L (Homo sapiens, UniProt P78363, P1380L)", "< 4.60"]
]}

Requested field: pEC50. Item: Cc1cc(C(F)(F)F)nc(C2CC2)c1Oc1nc(-c2cncc(C#N)c2)ccc1S(=O)(=O)Nc1cccnc1 [Compound I-294]
> 4.60

---

Biological target: ABCA4 P1380L (Homo sapiens, UniProt P78363, P1380L)
Construct: expressed in transfected cells
Test: A4 correction dose-response assay: ABCA4 P1380L HiBit protein expression
Assay type: cell-based
Settings: HEK-293 cells stably expressing HiBit-tagged ABCA4 P1380L; 24 h treatment; top concentration 30 μM; read-out: ABCA4 P1380L EC50, Emax
Experimental: Exemplary compounds were evaluated in an A4 correction dose-response assay. […] Dose response curves include eleven doses with the top final concentration at 30 μM in 0.3% DMSO. […] The plates are rotated at room temperature for 2 minutes and incubated for 1 hour at 25° C. before luminescent signal is acquired using an EnVision Multimode Plate Reader (PerkinElmer).
Measured EC50 of individual entries

{"columns": ["molecule", "obs_value"],
 "data": [
  ["Cc1cc(C2CC2)nc(C)c1Oc1nc(-c2cncc(C#N)c2)ccc1NS(=O)(=O)C1COC1", "< 25 µM"],
  ["Cc1cc(C)c(Oc2nc(-c3cncc(Cl)c3)ccc2NS(C)(=O)=O)c(C)c1", "> 25 µM"],
  ["CNS(=O)(=O)c1ccc(-c2cncc(C#N)c2)nc1Oc1c(C)cc(C(F)(F)F)nc1C1CC1", "< 25 µM"],
  ["Cc1cc(C)c(Oc2nc(-c3c[nH]c(=O)c(C#N)c3)ccc2NS(C)(=O)=O)c(C)n1", "> 25 µM"]
]}

API: value(readout=EC50, system=ABCA4 P1380L (Homo sapiens, UniProt P78363, P1380L)) for record Cc1cc(C(F)(F)F)nc(C2CC2)c1Oc1nc(-c2cncc(C#N)c2)ccc1S(=N)(=O)C1CCOCC1 (stereo not drawn)
< 25 µM

And the next one, Cc1cc(C)c(Oc2nc(-n3cnc(C#N)c3)ccc2N(C)S(C)(=O)=O)c(C)c1 ?
1 to 10 µM

Can you handle Cc1nc(C)c(C(F)(F)F)cc1Oc1nc(-c2cncc(C#N)c2)ccc1NS(C)(=O)=O next?
> 25 µM

---

Reported pEC50 by item:
biological target: ABCC6 WT (Homo sapiens, UniProt O95255); test: ABCC6 WT assay: HiBit protein expression; conditions: HEK-293 cells transiently expressing HiBit-tagged ABCC6 WT; 24 h treatment; top concentration 20 μM; read-out: ABCC6 WT EC50, Emax
Sequence (O95255 whole entry): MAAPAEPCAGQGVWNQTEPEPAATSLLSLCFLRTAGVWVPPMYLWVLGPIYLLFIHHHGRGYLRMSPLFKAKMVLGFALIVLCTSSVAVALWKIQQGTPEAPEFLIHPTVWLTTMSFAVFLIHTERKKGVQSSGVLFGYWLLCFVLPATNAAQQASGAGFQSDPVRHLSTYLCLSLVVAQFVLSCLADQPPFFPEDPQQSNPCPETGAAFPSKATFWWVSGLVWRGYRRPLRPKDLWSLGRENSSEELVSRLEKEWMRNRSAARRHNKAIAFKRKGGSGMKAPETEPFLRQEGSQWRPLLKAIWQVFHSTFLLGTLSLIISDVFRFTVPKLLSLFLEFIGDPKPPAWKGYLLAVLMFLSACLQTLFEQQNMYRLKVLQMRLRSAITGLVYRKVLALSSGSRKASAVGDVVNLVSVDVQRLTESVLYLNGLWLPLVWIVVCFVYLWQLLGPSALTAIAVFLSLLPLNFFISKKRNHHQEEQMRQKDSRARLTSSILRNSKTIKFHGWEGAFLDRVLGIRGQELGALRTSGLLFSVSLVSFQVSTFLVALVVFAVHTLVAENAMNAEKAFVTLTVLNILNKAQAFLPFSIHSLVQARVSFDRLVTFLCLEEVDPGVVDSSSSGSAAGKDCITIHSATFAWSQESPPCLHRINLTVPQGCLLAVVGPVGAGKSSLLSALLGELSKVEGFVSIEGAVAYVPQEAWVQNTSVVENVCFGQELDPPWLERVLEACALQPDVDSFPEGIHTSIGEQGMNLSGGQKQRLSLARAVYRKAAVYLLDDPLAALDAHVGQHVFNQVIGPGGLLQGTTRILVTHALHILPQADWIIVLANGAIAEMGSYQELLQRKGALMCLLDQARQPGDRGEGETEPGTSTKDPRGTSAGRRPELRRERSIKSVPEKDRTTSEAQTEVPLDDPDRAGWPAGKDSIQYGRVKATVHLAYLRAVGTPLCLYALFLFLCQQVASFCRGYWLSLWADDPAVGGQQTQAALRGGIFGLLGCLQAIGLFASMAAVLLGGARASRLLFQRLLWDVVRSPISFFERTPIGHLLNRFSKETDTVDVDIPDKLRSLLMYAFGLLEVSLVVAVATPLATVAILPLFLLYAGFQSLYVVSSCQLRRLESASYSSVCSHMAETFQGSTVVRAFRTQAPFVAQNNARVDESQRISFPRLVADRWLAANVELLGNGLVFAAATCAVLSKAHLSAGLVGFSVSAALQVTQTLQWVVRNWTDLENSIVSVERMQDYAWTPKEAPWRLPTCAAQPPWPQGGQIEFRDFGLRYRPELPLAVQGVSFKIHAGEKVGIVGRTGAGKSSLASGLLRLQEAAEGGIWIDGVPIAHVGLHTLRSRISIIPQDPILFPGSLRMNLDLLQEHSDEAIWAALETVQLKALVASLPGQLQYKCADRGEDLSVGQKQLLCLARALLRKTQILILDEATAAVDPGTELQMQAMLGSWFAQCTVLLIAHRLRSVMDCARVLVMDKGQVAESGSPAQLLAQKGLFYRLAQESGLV
pEC50: −log10 of the molar value.

Returns the measured pEC50 for the input compound. Input: C#Cc1cncc(-c2ccc(NS(C)(=O)=O)c(Oc3c(C)cc(C)nc3C)n2)c1 [Compound I-212]
> 6.00

Can you handle Cc1cc(C)c(Oc2nc(-c3cccc(C#N)n3)ccc2NS(C)(=O)=O)c(C)n1 [Compound I-241] next?
4.60 to 5.00

Again, but for Cc1cc(C)c(Oc2nc(-c3cncc(Cl)c3)ccc2NS(=O)(=O)c2cccnc2)c(C)c1 [Compound I-71]
> 6.00

---

target: UniProtKB P21439; assay: ABCB4 WT assay: HiBit protein expression; details: HEK-293 cells stably expressing HiBit-tagged ABCB4 WT; 24 h treatment; top concentration 30 μM; read-out: ABCB4 WT EC50, Emax
pEC50: −log10 of the molar value.
Items are presented alongside their recorded pEC50.

Use the examples below as a reference point.
{"columns": ["chem_smiles", "obs_value"],
 "data": [
  ["Cc1cc(C)c(Oc2nc(N3CCN(C(=O)C4CCC4)CC3)ccc2NS(C)(=O)=O)c(C)c1", "> 6.00"],
  ["Cc1cc(C)c(Oc2nc(N3CCC4(CN(C(=O)C5CC5)C4)C3)ccc2NS(C)(=O)=O)c(C)c1", "5.00 to 6.00"],
  ["Cc1cc(C)c(Oc2nc(-c3cncc(C#N)c3)ccc2NS(=O)(=O)C2CCC2)c(C)n1", "> 6.00"],
  ["Cc1cnc(Oc2nc(-c3cncc(C#N)c3)ccc2NS(C)(=O)=O)c(C)c1", "≤ 4.60"],
  ["Cc1cc(C)c(Oc2nc(-c3cncc(C#N)c3)ccc2N(C)S(C)(=O)=O)c(C)n1", "5.00 to 6.00"],
  ["Cc1nc(C(F)(F)F)nc(C)c1Oc1nc(-c2cncc(Cl)c2)ccc1NS(C)(=O)=O", "≤ 4.60"]
]}

Could you share which pEC50 value was measured for Cc1cc(C)c(Oc2nc(-c3cnc(C#N)c(Cl)c3)ccc2NS(C)(=O)=O)c(C)c1 ?
≤ 4.60

Please give the result for Cc1cc(C)c(Oc2nc(-c3cncc(Cl)c3)ccc2NS(=O)(=O)c2cccnc2)c(C2CC2)c1 too.
≤ 4.60

Input Cc1cc(C(F)(F)F)nc(C2CC2)c1Oc1nc(-c2cncc(C#N)c2)ccc1N(C)S(C)(=O)=O
≤ 4.60

Proceed to CNS(=O)(=O)c1ccc(-c2cncc(C#N)c2)nc1Oc1c(C)nc(C(F)(F)F)nc1C
5.00 to 6.00

Now this one: Cc1cc(C)c(Oc2nc(-c3cncc(Cl)c3)ccc2NS(=O)(=O)Cc2ccccc2)c(C)c1
≤ 4.60

Repeat with Cc1cc(C)c(Oc2nc(-c3cncc(Cl)c3)ccc2S(N)(=O)=O)c(C)c1
≤ 4.60

Let us now turn to CNS(=O)(=O)c1ccc(-c2cncc(C#N)c2)nc1Oc1c(C)cc(C)nc1C
> 6.00

// next record Cc1nc(OC2CC2)c(C(F)(F)F)cc1Oc1nc(-c2cncc(C#N)c2)ccc1NS(C)(=O)=O
> 6.00

Same question for Cc1cc(C(F)(F)F)nc(C2CC2)c1Oc1nc(-c2cncc(Cl)c2)ccc1NS(C)(=O)=O please.
> 6.00

---

biological target: UniProt:P21439; test: ABCB4 WT assay: HiBit protein expression; settings: HEK-293 cells stably expressing HiBit-tagged ABCB4 WT; 24 h treatment; top concentration 30 μM; read-out: ABCB4 WT EC50, Emax
pEC50: −log10 of the molar value.
pEC50 values for the compounds below.

Answered cases to consult:
{"columns": ["chem_smiles", "target_of_assay", "pEC50"],
 "data": [
  ["Cc1cc(C)c(Oc2nc(-c3cnn(C)c3)ccc2NS(C)(=O)=O)c(C)c1", "UniProt:P21439", "≤ 4.60"],
  ["Cc1cc(C)c(Oc2nc(-c3ccnc(C#N)c3)ccc2NS(C)(=O)=O)c(C)n1", "UniProt:P21439", "> 4.60"],
  ["Cc1cc(N2CCC2)nc(C)c1Oc1nc(-c2cncc(C#N)c2)ccc1NS(C)(=O)=O", "UniProt:P21439", "> 6.00"],
  ["C#Cc1cncc(-c2ccc(NS(C)(=O)=O)c(Oc3c(C)cc(C)nc3C)n2)c1", "UniProt:P21439", "> 6.00"],
  ["Cc1cc(C)c(Oc2nc(-c3cncc(Cl)c3)ccc2N(C)S(=O)(=O)c2cnn(C)c2)c(C2CC2)c1", "UniProt:P21439", "5.00 to 6.00"]
]}

Item Cc1nc(C)c(Oc2nc(-c3cncc(C(F)F)c3)ccc2NS(C)(=O)=O)c(C)n1 with UniProt:P21439 - pEC50?
> 6.00

Also need Cc1cc(C)c(Oc2[nH]c(-c3cncc(C#N)c3)cc(=O)c2NS(C)(=O)=O)c(C)n1 , thanks.
> 4.60

Next entry: Cc1cc(C)c(Oc2nc(-c3cncc(C#N)c3)ccc2NS(=O)(=O)C(C)C)c(C)n1
> 6.00

---

Target: ABCB4 WT (Homo sapiens, UniProt P21439)
Sequence (P21439 whole entry): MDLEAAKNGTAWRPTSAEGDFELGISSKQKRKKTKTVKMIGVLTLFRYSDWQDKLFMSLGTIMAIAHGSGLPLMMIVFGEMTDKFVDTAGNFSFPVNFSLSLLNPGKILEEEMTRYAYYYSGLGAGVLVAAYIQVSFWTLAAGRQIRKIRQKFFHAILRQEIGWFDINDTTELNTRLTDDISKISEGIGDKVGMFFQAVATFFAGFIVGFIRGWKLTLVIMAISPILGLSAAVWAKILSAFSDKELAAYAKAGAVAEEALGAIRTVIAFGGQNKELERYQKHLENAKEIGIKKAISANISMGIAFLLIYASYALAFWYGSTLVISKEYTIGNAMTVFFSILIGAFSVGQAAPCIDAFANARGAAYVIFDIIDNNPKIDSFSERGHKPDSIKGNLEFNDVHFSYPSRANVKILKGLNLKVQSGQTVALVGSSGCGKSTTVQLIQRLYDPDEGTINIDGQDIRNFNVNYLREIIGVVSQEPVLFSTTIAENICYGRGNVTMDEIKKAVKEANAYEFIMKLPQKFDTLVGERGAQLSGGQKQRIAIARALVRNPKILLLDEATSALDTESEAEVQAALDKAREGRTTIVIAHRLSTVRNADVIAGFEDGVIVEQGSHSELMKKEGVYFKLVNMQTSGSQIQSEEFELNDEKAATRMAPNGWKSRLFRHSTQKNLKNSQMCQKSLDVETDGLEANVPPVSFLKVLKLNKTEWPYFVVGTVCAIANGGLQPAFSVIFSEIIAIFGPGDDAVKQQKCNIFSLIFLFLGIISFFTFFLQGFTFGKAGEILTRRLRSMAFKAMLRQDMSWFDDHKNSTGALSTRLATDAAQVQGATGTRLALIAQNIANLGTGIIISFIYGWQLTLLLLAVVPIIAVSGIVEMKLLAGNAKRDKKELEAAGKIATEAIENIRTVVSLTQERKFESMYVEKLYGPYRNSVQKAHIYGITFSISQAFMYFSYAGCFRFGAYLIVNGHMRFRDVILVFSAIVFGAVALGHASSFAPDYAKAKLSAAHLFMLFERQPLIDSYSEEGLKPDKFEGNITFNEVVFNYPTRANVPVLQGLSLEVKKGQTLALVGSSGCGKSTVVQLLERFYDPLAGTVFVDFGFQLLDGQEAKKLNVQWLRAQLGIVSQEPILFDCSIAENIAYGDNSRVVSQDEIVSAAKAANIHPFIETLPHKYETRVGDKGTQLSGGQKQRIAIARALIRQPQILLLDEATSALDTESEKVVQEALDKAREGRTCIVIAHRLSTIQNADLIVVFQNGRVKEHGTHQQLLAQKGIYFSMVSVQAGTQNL
Assay: ABCB4 WT assay: HiBit protein expression
Details: HEK-293 cells stably expressing HiBit-tagged ABCB4 WT; 24 h treatment; top concentration 30 μM; read-out: ABCB4 WT EC50, Emax
Method: To assess activity against ABCB4, compounds were screened in an assay measuring protein expression, using cells transfected with cDNA encoding HiBit-tagged ABCB4 wild-type. […] Dose response curves include eleven doses with the top final concentration at 30 μM in 0.3% DMSO. […] The plates are rotated at room temperature for 2 minutes and incubated for 1 hour at 25° C. before luminescent signal is acquired using an EnVision Multimode Plate Reader (PerkinElmer). […]
pEC50: −log10 of the molar value.
measurement_kind: pEC50

{"columns": ["compound", "obs_value"],
 "data": [
  ["COC(=O)N1CCN(c2ccc(NS(C)(=O)=O)c(Oc3c(C)cc(C)cc3C)n2)CC1 [Compound I-16]", "≤ 4.60"],
  ["Cc1cc(C)c(Oc2nc(N3CCn4c(cnc4C)C3)ccc2NS(C)(=O)=O)c(C)c1 [Compound I-30]", "5.00 to 6.00"],
  ["Cc1cc(C(F)(F)F)nc(C2CC2)c1Oc1nc(-c2cncc(C#N)c2)ccc1NS(=O)(=O)C(C)C [Compound I-141]", "> 6.00"],
  ["Cc1cc(C(F)(F)F)nc(C)c1Oc1nc(-c2cncc(C#N)c2)ccc1NS(C)(=O)=O [Compound I-240]", "> 6.00"],
  ["Cc1nc(C)c(Oc2nc(-c3cncc(C#N)c3)ccc2NS(C)(=O)=O)c(C2CC2)n1 [Compound I-165]", "5.00 to 6.00"],
  ["Cc1cc(C)c(Oc2nc(-c3cncc(Cl)c3)ccc2S(=O)(=O)NCc2ccccc2)c(C)c1 [Compound I-88]", "> 4.60"]
]}

Proceeding to the next compound to report its pEC50.
Which pEC50 reading was recorded for the compound Cc1cc(C)c(Oc2nc(N3CCN(C(=O)C(C)(C)C)CC3)ccc2NS(C)(=O)=O)c(C)c1 [Compound I-34] ?
5.00 to 6.00

Values from patent US20250228835A1
